- TEST SYSTEM: CCR1 (Homo sapiens, UniProt P32246)
- Sequence (P32246 whole entry): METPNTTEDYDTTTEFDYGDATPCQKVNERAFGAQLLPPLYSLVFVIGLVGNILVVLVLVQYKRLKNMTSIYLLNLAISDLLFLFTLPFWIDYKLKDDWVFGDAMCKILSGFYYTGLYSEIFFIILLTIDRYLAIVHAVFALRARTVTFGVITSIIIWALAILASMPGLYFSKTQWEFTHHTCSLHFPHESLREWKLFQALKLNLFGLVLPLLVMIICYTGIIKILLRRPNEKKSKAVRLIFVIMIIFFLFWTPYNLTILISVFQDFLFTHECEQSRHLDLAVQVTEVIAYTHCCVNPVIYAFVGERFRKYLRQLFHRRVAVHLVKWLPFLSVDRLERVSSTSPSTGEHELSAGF
- ASSAY NOTES: calcium flux in CCR1 transfected cells, Method A (Fluo-4 NW, FLIPR TETRA)
- Format: cell-based
- MEASUREMENT PARAMETERS: cells stably expressing recombinant CCR1 and G-alpha-16, MIP-1 alpha at EC80
- Description: Compounds are assessed for the ability to block the interaction of CCR1 and MIP-1α in a functional cellular assay measuring calcium flux in CCR1 transfected cells. Method A: Non-adherent cells purchased from Chemicon Corporation (HTS005C), stably expressing recombinant CCR1 and G-alpha-16 are grown in RPMI 1640 medium (Mediatech 10-080-CM) supplemented with 10% heat-inactivated FBS, 0.4 mg/mL Geneticin and penicillin/streptomycin. […] Data are analyzed using Activity Base software.
pIC50: −log10 of the molar value.
REPORTED PROPERTY: pIC50

MOLECULE | pIC50
CCC[C@H](NC(=O)N1c2cnn(-c3ccc(F)cc3)c2CCC1C(F)(F)F)c1ccnc(S(C)(=O)=O)c1 (single isomer, unassigned) | 8.00

1 = CCC[C@H](NC(=O)N1c2cnn(-c3ccc(F)cc3)c2CCC1C(F)(F)F)c1cncc(S(C)(=O)=O)c1 (some centres unmarked)
2 = C[C@H](NC(=O)N1CCCc2c1cnn2-c1ccc(F)cc1)c1cncc(Br)c1
3 = C[C@H](CO)NS(=O)(=O)c1ccc(CNC(=O)N2CCCc3c2cnn3-c2ccc(F)cc2)cc1
4 = CC[C@H](NC(=O)N1CCCc2c1cnn2-c1ccc(F)cc1)c1cncc(S(C)(=O)=O)c1
# rank by pIC50, ascending (min first) Present the labels in the sequence the task asks for.
3, 1, 2, 4

Entry source: patent US8546442B2
